- SYSTEM_TESTED: NEP (neutral endopeptidase EC.3.4.24.11), native enzyme isolated from kidneys (Homo sapiens, UniProt P08473)
- Construct: NEP is isolated from kidneys following the method described by Kenny and Booth
- Sequence (P08473 whole entry): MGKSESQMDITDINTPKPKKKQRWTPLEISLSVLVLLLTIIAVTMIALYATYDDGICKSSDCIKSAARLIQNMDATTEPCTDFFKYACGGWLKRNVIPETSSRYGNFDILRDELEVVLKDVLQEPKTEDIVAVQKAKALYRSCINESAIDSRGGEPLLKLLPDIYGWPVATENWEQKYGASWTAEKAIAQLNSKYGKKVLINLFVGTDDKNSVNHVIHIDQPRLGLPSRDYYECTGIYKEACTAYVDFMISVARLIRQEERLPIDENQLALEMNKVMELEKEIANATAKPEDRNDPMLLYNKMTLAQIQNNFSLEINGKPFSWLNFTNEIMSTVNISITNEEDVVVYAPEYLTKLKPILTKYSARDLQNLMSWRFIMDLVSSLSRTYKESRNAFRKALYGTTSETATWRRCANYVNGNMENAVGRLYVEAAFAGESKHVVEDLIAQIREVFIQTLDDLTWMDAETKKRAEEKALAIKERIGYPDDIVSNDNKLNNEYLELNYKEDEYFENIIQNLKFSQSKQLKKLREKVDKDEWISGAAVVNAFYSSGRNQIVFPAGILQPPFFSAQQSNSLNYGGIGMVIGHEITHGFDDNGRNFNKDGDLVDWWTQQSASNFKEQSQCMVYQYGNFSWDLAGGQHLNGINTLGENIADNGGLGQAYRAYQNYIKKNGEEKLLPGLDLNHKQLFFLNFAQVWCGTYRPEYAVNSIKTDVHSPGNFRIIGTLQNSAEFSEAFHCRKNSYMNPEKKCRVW
- METHOD: Assay of NEP peptidase activity (fluorogenic peptide substrate), IC50 determination
- TEST_SETTINGS: read-out: activity against NEP expressed as an IC50
TEST_READOUT: IC50 (nM)
Give your result in nM as a bare value.

Sample `Cc1nc2ccc(CCCNC(=O)C3(C[C@@H](C)C(=O)O)CCCC3)cc2s1` — what was its IC50?
1
